Data credit: ChEMBL document CHEMBL2375346

- System: SK-MEL-2
- PROTOCOL_TEXT: Cytotoxicity against human SK-MEL-2 cells assessed as growth inhibition by SRB assay
- Assay type: functional, cell-based
RECORDED_METRIC: pIC50
Please express pIC50 as -log10 of the molar concentration.

• CC(C)(O)[C@H](O)CC[C@@H](CO)[C@H]1CC[C@@]2(C)C3=CC[C@H]4C(C)(C)[C@@H](O)[C@H](O)C[C@]4(C)C3=C[C@H](O)[C@]12C = 5.34

Query pIC50 on SK-MEL-2 for C[C@H](CC[C@@H](O)C(C)(C)O)[C@H]1CC[C@@]2(C)C3=C(C[C@H](O)[C@]12C)[C@@]1(C)C[C@@H](OC(=O)CC(C)(O)CC(=O)O)[C@H](O)C(C)(C)[C@@H]1CC3 (stereo not given in full)
4.78

Query pIC50 on SK-MEL-2 for `C[C@H](CC[C@@H](O)C(C)(C)O)[C@H]1CC[C@@]2(C)C3=C(C[C@H](O)[C@]12C)[C@@]1(C)C[C@@H](O)[C@H](O)C(C)(C)[C@@H]1CC3`
5.29
